src = patent US20180147296A1

# method-description: PrestoBlue assay, MCF-7-CMV/U251 co-culture
# Format: cell-based
# test-settings: human, MCF-7 cells on coverslips, co-cultured with CMV/U251 cells, MCF-7 in co-culture with CMV/U251, 80 μM Luc free or loaded, or carrier alone, read-out: viability compared to untreated controls
property-name: viability at 24 h, 80 μM

*Q* Quick check: viability at 24 h, 80 μM of CCN(CC)CCNc1ccc(C)c2sc3ccccc3c(=O)c12 ?
*A* ~36%

* * *

# method-description: PrestoBlue assay, MCF-7-CMV/U251 co-culture
# Assay type: cell-based
# test-settings: human, CMV/U251 cells on coverslips, co-cultured with MCF-7 cells, CMV/U251 in co-culture with MCF-7, 80 μM Luc free or loaded, or carrier alone, read-out: viability compared to untreated controls
# Protocol: MCF-7, CG-4 and CMV/U251 were seeded separately on 12 mm round glass coverslips (Fisherbrand, Fisher Scientific, PA) in 100 mm plates at a density of 2.2×10^6 cells and allowed to grow overnight. For the two separate co-culture condition experiments, one coverslip from each cell line was placed in 6 well plates, for a total of two coverslips per well. […] After incubating for 4 h, the fluorescence intensity was recorded using the procedure described above.
property-name: viability at 24 h, 80 μM

*Q* What does the record list as viability at 24 h, 80 μM for CCN(CC)CCNc1ccc(C)c2sc3ccccc3c(=O)c12 [Lucanthone] ?
*A* ~28%
